Items are presented alongside their recorded Kd.
Molecular target: HGF (hepatocyte growth factor/scatter factor) (UniProt P14210;P14210 P14210:32-494,P14210:495-728)
Sequence (P14210 32-494, chain 1 of 2): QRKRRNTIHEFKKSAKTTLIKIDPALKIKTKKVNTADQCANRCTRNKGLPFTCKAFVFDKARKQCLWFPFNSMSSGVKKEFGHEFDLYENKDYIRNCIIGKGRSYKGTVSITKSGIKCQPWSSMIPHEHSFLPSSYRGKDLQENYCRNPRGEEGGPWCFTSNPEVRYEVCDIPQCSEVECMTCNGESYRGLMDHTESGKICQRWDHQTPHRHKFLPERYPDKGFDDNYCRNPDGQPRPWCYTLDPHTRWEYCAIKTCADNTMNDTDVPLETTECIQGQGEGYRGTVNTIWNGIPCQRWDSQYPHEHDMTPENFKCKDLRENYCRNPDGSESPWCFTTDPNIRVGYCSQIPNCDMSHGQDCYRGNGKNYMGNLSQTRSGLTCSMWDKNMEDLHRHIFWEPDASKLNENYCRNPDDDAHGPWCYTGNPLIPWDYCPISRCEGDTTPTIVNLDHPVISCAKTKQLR
Sequence (P14210 495-728, chain 2 of 2): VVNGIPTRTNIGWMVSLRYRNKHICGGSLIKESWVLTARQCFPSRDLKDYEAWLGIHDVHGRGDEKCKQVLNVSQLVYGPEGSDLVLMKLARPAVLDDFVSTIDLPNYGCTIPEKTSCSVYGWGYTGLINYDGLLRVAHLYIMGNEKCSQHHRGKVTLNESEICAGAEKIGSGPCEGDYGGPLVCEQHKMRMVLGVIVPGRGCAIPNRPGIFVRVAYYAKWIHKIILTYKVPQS
Assay: filter; HBSMC, 37C
Settings: tags: R&D Systems
Numbers only; they are read as nM.

| binder | quantity unit | Kd |
| --- | --- | --- |
| 10-7 (ssRNA, 2'-F pyrimidines) RNA: GGGAGAUAAGAAUAAACGCUCAAUGCCUUAAGAGCGGAACUCCCUGACCCACCUUCGACAGGAGGCUCACAACAGGC | nM | 1.45 |
| 11-65 (ssRNA, 2'-F pyrimidines) RNA: GGGAGGACGAUGCGGUGAUAACCUGUUUAUGCCAUCGUGCUGGGCCAGACGACUCGCCCGA | nM | 0.11 |
| 10-37 (ssRNA, 2'-F pyrimidines) RNA: GGGAGAUAAGAAUAAACGCUCAAGUCUGAGUCCGUAGGGCGAUUUGUGUCCCUUCGACAGGAGGCUCACAACAGGC | nM | 3.05 |
| 8-165 (ssRNA, 2'-F pyrimidines) RNA: GGGAGGACGAUGCGGCGAGAGCCUAUUUAUGUCAUCAUGCCUGUGCAGACGACUCGCCCGA | nM | 0.1 |

Then this binder:
Recall and state the measured Kd for 11-208 (ssRNA, 2'-F pyrimidines) RNA: GGGAGGACGAUGCGGGUUUGAGUGACGAUCGUCUUGUCCCAUGUGCAGACGACUCGCCCGA .
0.06
